Values were extracted from patent US4757074A.

targetOrSystem: longitudinal muscle from the intact ileum of guinea-pigs (response to histamine) (Cavia porcellus, UniProt P31389)
Construct: The longitudinal muscle was isolated from the intact ileum of guinea-pigs; from tissue; host or cells: longitudinal muscle of guinea-pig ileum (Hartley, male)
Sequence (P31389 whole entry): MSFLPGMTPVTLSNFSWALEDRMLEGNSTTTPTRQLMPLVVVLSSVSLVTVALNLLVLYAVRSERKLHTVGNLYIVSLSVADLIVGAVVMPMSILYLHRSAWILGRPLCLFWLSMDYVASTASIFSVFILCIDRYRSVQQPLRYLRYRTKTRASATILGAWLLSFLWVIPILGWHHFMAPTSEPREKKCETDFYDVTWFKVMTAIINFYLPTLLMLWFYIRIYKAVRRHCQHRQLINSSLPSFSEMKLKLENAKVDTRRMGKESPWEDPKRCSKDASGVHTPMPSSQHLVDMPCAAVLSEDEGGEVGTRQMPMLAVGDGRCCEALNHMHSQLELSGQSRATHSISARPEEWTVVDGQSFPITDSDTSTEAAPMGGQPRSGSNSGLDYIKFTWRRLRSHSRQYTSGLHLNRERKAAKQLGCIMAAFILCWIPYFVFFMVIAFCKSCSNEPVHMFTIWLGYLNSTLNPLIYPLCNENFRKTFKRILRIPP
test: In vitro antihistaminic activity (inhibition of histamine concentration-response in isolated ileum longitudinal muscle)
Design: species or system guinea-pigs (Hartley, male)
measurementParameters: negative log of the concentration which gives a significant antihistaminic effect; guinea-pig ileum longitudinal muscle; one hour incubation with test compound; Arunlakshana and Schild method; read-out: pA2 (converted)
Description: In vitro antihistaminic activity: The longitudinal muscle was isolated from the intact ileum of guinea-pigs (Hartley, male, 250-400 g) and placed in an organ bath under 300 mg tension. After one hour of equilibration, cumulative concentration-response curves (Van Rossum, J. M., Arch. Int. Pharmacodyn. Ther. 143, 299-330, 1963) to histamine were obtained. […] Antihistaminic activity was determined as pA2 values by the method of Arunlakshana, O. and Schild, H. O. (Br. J. Pharmacol: 14, 48-58, 1959).
measurementType: Kb (µM)
# value in µM; strip the unit string

For orientation, consider the following solved cases.
>>> recordedvalue("CN1CCN(C(c2ccc(Cl)cc2)c2ccccc2C(=O)O)CC1 (centres unmarked) [C]")
2.51
>>> recordedvalue("CN1CCN(C(c2ccc(Cl)cc2)c2cccc(OCC(=O)O)c2)CC1 (centres unmarked) [F]")
0.158
>>> recordedvalue("CN1CCN(C(c2ccc(Cl)cc2)c2ccc(C(=O)O)cc2)CC1 (centres unmarked) [D]")
2.51
>>> recordedvalue("CN1CCN(C(c2ccc(Cl)cc2)c2cccc(C(=O)O)c2)CC1 (centres unmarked) [B]")
0.398
>>> recordedvalue("CC(C)(C)c1ccc(CN2CCN(C(c3ccc(Cl)cc3)c3cccc(OCC(=O)O)c3)CC2)cc1 (centres unmarked) [H]")
0.00631

Recorded result, Cc1cccc(CN2CCN(C(c3ccc(Cl)cc3)c3cccc(OCC(=O)O)c3)CC2)c1 (centres unmarked) [G] , Kb: 0.00158

Recorded result, COc1ccc(C(c2cccc(C(=O)O)c2)N2CCN(C)CC2)cc1 (centres unmarked) [E] , Kb: 0.316

Recorded result, CN1CCN(C(c2ccc(Cl)cc2)c2cccc(/C=C/C(=O)O)c2)CC1 (centres unmarked) [A] , Kb: 0.501
